Numbers sourced from the RepoRT retention time repository.

- EXPERIMENTAL PROTOCOL: Agilent ZORBAX 300 SB-C18, 150 × 1 mm, 3.5 µm; A: water + 0.01% heptafluorobutyric acid; B: acetonitrile + 0.01% heptafluorobutyric acid; gradient (min/%B) 0/0 100/90
- ASSAY SETUP: stereoisomer not certain
Kind request: treat 10 min as inclusive, so LC retention time at 10 min or higher is Yes, anything lower is No.

In: I'd appreciate it if you could say whether `Cc1cc(C)c2c(CC(=O)NN(C)C)coc2c1` has LC retention time at least equal to 10 min.
Out: Yes

In: I'd appreciate it if you could say whether `Cc1cccc(NC(=S)NNC(=O)c2cccc(C)c2)c1` has LC retention time at least equal to 10 min.
Out: Yes

In: I'd appreciate it if you could say whether `OCCNCc1ccccc1` has LC retention time at least equal to 10 min.
Out: No

In: I'd appreciate it if you could say whether C=CCC1NC(C)(C)Cc2ccccc21 (stereo not given) has LC retention time at least equal to 10 min.
Out: No
